Target: glycine transporter-1 (GlyT-1) (Homo sapiens, UniProt P48067)
Construct: JAR cells (ATCC#HTB-144), which endogenously express GlyT-1; host or cells: JAR human choriocarcinoma cells
Sequence (P48067 1-706): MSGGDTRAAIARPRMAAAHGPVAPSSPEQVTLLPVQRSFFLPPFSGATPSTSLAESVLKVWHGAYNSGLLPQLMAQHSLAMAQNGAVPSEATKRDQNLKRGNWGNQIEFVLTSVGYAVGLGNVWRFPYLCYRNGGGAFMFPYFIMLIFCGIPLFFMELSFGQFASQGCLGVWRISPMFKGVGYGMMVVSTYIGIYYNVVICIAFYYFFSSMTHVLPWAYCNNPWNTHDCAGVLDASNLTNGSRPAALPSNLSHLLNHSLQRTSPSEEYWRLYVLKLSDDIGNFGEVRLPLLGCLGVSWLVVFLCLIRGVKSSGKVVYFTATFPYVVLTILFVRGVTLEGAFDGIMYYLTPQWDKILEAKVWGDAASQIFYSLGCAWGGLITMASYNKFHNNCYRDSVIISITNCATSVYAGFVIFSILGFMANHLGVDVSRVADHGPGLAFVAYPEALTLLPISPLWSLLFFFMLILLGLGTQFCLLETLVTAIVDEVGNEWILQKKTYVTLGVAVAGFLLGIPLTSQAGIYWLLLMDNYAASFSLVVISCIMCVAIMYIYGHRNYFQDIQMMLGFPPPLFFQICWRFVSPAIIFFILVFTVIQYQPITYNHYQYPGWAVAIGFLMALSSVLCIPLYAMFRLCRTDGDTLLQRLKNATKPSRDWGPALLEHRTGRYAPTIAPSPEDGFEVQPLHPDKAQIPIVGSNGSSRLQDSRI
Assay: [14C]glycine uptake assay in JAR cells endogenously expressing GlyT-1 (scintillation proximity)
Type: cell-based
Conditions: JAR cells, [14C]glycine 5 μM, 3 hour incubation; read-out: GlyT-1 IC50
Structures can show the parent of a compound that is named as a salt.
As shown below, each of these compounds has a reported log10 of IC50 value.
Scale: decimal log of IC50, IC50 in nM.

Below, each entry is followed by its recorded log10 of IC50 result.
CCCS(=O)(=O)N1CCN(C2(CNC(=O)c3ccc(F)cc3Cl)CCCCC2)CC1 [compound 12, Hydrochloride] : 1.80
CCCS(=O)(=O)N1CCN(C2(CNC(=O)c3ccc(Cl)cc3Cl)CCCOC2)CC1 (stereo not shown) [compound 125, Hydrochloride] : 2.25
CCCS(=O)(=O)N1CCN(C2(CNC(=O)c3c(F)cc(Cl)cc3F)CCCCCC2)CC1 [compound 51, Hydrochloride] : 1.11
O=C(NCC1(N2CCN(S(=O)(=O)c3cccnc3)CC2)CCC(F)(F)CC1)c1c(F)cccc1F [compound 269, Hydrochloride] : 2.91
CCCS(=O)(=O)N1CCN(C2(CNC(=O)c3c(N)cccc3Cl)CCN(C)CC2)CC1 [compound 116, Hydrochloride] : 2.70
Cn1cc(S(=O)(=O)N2CCN(C3(CNC(=O)c4ccc(Cl)cc4Cl)CCOCC3)CC2)nn1 [compound 129, Hydrochloride] : 1.04

# input for lookup
Exercise: log10 of IC50 for CCCS(=O)(=O)N1CCN(C2(CNC(=O)c3c(C)cccc3F)CCC(F)(F)CC2)CC1 [compound 147, Hydrochloride] ?
Solution: 1.49
